Value source: patent US20240043505A1

target: SARS-CoV-2 spike receptor-binding domain (RBD) (SARS-CoV-2, UniProt P0DTC2 319-541); assay: indirect ELISA on coated RBD ('ELISA affinity')
property_label: pIC50
Remember the convention: pIC50 equals -log10 of concentration in molar.

Illustrative cases are given below, each with its answer.
binder	pIC50
Nb55 (VHH) VHH: DVQLVESGGGLVQAGGSLRLSCAASGRTFGSTMAWFRQAPGKERDFVAAITWSADRISYADSVKGRFTISRDNDKNIVHLQMNSLKPEDTAVYVCAARASSNTYDDPRSFAFWGQGTQVTVSS	8.65
Nb80 (VHH) VHH: HVQLVESGGGLVQPGGSLRLSCAASGNFFLINVMSWWRQAPGNEHELHELVATITSDGRTNYGDAVQGRFTISRDNAKNTLYLQMNSLKPEDTAVYYCYAQGQGNREYWGQGTQVTVSS	8.29
Nb29 (VHH) VHH: HVQLVESGGGLVQAGGSLRLTCAASGGTFSTSTMDMGWFRQAPGKEREFVAVDSWNDGRAYYADSVKGRFTISRDNAKNTLYLQMNSLKPEDTAVYYCAAETYSNYEKAYSWGYWGQGTQVTVSS	8.90

Please report the measured pIC50 for Nb64 (VHH) VHH: QVQLVESGGGLVQAGGSLRLSCAVSGRTFSIAGMGWFRQAPGKDREFLGGITWNDGTTWYADSVKGRFTISRDNAKNMLSLRMNSLKPEDTAVYYCAAGPRLGSTPRAYDYWGQGTQVTVSS
9.35
